Kindly supply the reported raw competing-Ab binding signal values for the records listed here.
Molecular target: T1, human Sdc2 (human, UniProt P34741 19-144, limits assumed)
T1 construct: Antigen of the Octet tandem binning, loaded on biosensors at 100 nM; also called huSdc2; hSdc2
T1 sequence (P34741 19-144 limits assumed): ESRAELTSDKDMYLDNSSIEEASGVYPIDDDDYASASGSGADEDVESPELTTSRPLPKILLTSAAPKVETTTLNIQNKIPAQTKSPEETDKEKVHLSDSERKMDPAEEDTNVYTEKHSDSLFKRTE
Test: Octet tandem binning; saturating Ab f5 19844-R4M-P3-E06
Give the figure by itself; no unit, no explanation.

May I ask what raw competing-Ab binding signal has been recorded for R4M-P1-A10 (antibody, human IgG1, kappa, V domains shown) VH: EVQLVETGGGVVQPGRSLRLSCAASGFTFSSYAMHWVRQAPGKGLEWVAVISYDGSNKYYADSVKGRFTISRDNSKNTLYLQMNSLRAEDTAVYYCARDRGWADAFDIWGQGTMVTVSS VL: QAGLTQPPSVSKGLRQTATLTCTGNSNNVGYQGAVWLLQYQGHPPKVLSNRNNDRPSGISERLSASRSGNTASLTITGLQPEDEGDYFCAAWDGSLRGWVFGGGTKLTVLR ?
0.358

How about this binder: 6-N03-A (antibody, mouse IgG1, kappa, V domains shown) VH: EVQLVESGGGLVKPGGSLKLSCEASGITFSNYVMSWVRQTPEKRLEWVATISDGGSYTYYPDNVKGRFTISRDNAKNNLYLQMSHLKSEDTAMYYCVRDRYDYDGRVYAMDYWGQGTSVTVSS VL: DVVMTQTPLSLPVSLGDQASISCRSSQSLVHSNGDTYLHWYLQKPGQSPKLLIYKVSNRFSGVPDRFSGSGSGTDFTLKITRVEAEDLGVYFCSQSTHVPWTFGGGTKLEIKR
0.463

How about this binder: 19838-6-N03-A (antibody, IgG1, V domains shown) VH: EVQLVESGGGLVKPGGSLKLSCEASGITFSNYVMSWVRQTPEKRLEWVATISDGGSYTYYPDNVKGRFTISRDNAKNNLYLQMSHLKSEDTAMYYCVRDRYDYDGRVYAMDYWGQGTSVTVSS VL: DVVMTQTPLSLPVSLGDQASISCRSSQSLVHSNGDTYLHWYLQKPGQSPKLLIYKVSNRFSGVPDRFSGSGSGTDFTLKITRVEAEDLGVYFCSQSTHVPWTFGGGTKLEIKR
0.463

How about this binder: R3-P3-E09 (antibody, human IgG1, kappa, V domains shown, human IgG1 kappa from the phage campaign) VH: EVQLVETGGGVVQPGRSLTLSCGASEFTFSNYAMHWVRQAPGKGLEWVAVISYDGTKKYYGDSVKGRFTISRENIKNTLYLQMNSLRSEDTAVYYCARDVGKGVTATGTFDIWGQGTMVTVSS VL: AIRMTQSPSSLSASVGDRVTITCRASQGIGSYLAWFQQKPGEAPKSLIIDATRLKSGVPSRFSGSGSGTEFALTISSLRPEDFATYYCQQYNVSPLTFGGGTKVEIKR
0.338

How about this binder: R3-P3-C11 (antibody, human IgG1, kappa, V domains shown, human IgG1 kappa from the phage campaign) VH: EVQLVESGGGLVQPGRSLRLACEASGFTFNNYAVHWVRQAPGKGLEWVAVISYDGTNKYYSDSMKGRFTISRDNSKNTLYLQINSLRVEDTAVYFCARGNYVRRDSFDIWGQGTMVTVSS VL: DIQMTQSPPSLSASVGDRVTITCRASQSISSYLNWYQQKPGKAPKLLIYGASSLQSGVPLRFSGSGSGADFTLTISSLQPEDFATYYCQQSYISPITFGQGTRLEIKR
0.61

How about this binder: 8-G17-A (antibody, V domains shown, PentaMice hybridoma clone, made recombinantly in CHO cells) VH: EVQLVESGGGLVKPGGSLKLSCEASGITFSNYVMSWVRQTPEKRLEWVATISDGGSYTYYPDNLKGRFTISRDNAKNNLYLQMSHLKSEDTAMYYCVRDRYDYDGRVYAMDYWGQGTSVTVSS VL: DVVMTQTPLSLPVSLGDQASISCRSSQSLVHSNGNTYLHWYLQKPGQSPKLLIYKVSNRFSGVPDRFSGSGSGTDFTLKITRVEAEDLGVYFCSQSTHVPWTFGGGTKLEIKR
0.954

Provenance of the data: patent US20250282885A1
